Reported MIC K. pneumoniae 063 values follow for various compounds
# Tested on: Klebsiella pneumoniae
# Type: cell-based
Bridge positions count the residues as written; N and C are the ends. Square brackets hold non-standard residues; d marks the D form. Peptide text beside a SMILES is read from it. * marks the point of attachment. ξ: configuration not given here. dBip = N[C@H](Cc1ccc(-c2ccccc2)cc1)C(=O)O; X26 = NCC[C@H](OCC1CCCCC1)C(=O)*; X3 = CCCCCCCCN1CCNC[C@H]1C(=O)*; dCha = N[C@H](CC1CCCCC1)C(=O)O; Thr(3ξ) = CC(O)[C@H](N)C(=O)O; X20 = NCC(Cc1ccccc1F)C(=O)*; Dab = NCC[C@H](N)C(=O)O; Dap = NC[C@H](N)C(=O)O
Field: numeric (µg/mL). Do not append units.

compound | MIC K. pneumoniae 063 (µg/mL)
CC(C)C[C@@H]1NC(=O)[C@@H](CC2CCCCC2)NC(=O)[C@H](CCN)NC(=O)[C@@H](NC(=O)[C@H](CN)NC(=O)[C@@H](NC(=O)C(CCN)Cc2cccc(F)c2)C(C)O)CCNC(=O)[C@H]([C@@H](C)O)NC(=O)[C@H](CCN)NC(=O)[C@H](CCN)NC1=O (single isomer, unassigned; isomer 2) [Example 45] | 16
CCCCCCCCN1CCNC[C@H]1C(=O)N[C@H](C(=O)N[C@@H](CCN)C(=O)N[C@H]1CCNC(=O)[C@H]([C@@H](C)O)NC(=O)[C@H](CCN)NC(=O)[C@H](CCN)NC(=O)[C@H](CC(C)C)NC(=O)[C@@H](Cc2ccc(-c3ccccc3)cc2)NC(=O)[C@H](CCN)NC1=O)C(C)O (some centres unmarked) [Example 6] (X3-[Thr(3ξ)][Dab][Dab][Dab][dBip]L[Dab][Dab]T; lactam 3-C) | 4
CC(C)C[C@@H]1NC(=O)[C@@H](CC2CCCCC2)NC(=O)[C@H](CCN)NC(=O)[C@@H](NC(=O)[C@H](CN)NC(=O)[C@@H](NC(=O)[C@H](CCN)OCC2CCCCC2)[C@@H](C)O)CCNC(=O)[C@H]([C@@H](C)O)NC(=O)[C@H](CCN)NC(=O)[C@H](CCN)NC1=O [Example 84] (X26-T[Dap][Dab][Dab][dCha]L[Dab][Dab]T; lactam 3-C) | 32
CCCCCC/C=C/c1ccc(C[C@H]2NC(=O)[C@H](CCN)NC(=O)[C@@H](NC(=O)[C@H](CN)NC(=O)[C@@H](NC(=O)C3CNCC(CC(C)C)C3)C(C)O)CCNC(=O)[C@H]([C@@H](C)O)NC(=O)[C@H](CCN)NC(=O)[C@H](CCN)NC(=O)[C@H](CC(C)C)NC2=O)cc1 (single isomer, unassigned; isomer 2) [Example 18] | 4

Switching to the query record.
Q. Given CC(C)C[C@@H]1NC(=O)[C@@H](CC2CCCCC2)NC(=O)[C@H](CCN)NC(=O)[C@@H](NC(=O)[C@H](CCN)NC(=O)[C@@H](NC(=O)C(CN)Cc2ccccc2F)[C@@H](C)O)CCNC(=O)[C@H]([C@@H](C)O)NC(=O)[C@H](CCN)NC(=O)[C@H](CCN)NC1=O (some centres unmarked) [Example 62, 3-amino-2-(2-fluorobenzyl) propanoyl] (X20-T[Dab][Dab][Dab][dCha]L[Dab][Dab]T; lactam 3-C) , state its recorded MIC K. pneumoniae 063.
A. 64
